target_or_test_system: TRKC (Homo sapiens (Human))
Sequence (Q16288 other isoform, or with tags, fused parts or gaps isoform Q16288-3): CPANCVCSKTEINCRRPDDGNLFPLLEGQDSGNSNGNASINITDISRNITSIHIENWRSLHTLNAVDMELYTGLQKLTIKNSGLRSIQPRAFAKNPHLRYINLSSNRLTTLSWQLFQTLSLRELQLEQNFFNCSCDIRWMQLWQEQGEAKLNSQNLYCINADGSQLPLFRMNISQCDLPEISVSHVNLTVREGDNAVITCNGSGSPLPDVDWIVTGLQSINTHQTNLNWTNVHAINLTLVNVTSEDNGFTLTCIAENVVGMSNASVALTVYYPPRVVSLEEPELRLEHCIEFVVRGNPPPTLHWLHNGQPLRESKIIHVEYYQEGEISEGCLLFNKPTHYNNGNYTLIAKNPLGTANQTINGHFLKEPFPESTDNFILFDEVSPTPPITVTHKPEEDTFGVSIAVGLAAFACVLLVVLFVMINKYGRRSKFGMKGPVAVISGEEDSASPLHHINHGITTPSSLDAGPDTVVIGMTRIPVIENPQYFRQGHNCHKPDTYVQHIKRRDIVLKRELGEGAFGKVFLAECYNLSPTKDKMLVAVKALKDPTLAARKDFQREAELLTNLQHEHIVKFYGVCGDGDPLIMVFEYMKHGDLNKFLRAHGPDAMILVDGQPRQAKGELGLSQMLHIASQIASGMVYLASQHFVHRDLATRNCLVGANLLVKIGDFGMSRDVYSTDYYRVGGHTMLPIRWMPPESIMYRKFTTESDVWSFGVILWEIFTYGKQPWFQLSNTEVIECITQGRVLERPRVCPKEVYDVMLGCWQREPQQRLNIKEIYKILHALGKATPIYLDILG
experimental_details: Mobility shift assay, TRKC kinase
condition_label: read-out: TRKC IC50, ATP 44.4 μM
pIC50: −log10 of the molar value.
property_measured: pIC50

- molecular_string: "C[C@@H]1c2cc(F)ccc2OCCOC(=O)c2cnn3ccc(nc23)N1C"
  property_measured: "pIC50"
  result_number: 9.20
- molecular_string: "C[C@H]1COC(=O)c2cnn3ccc(nc23)N[C@H](C)c2cc(F)ccc2S1"
  property_measured: "pIC50"
  result_number: 9.12

1: C[C@H]1COC(=O)c2cnn3ccc(nc23)N[C@H](C)c2cc(F)ccc2O1
2: C[C@H]1Nc2ccn3ncc(c3n2)C(=O)OCCSc2ccc(F)cc21
Request: Please indicate which has the smaller reported pIC50: 1 , or 2 . # respond with the chosen item's label
Response: 2
(2: 8.96, 1: 9.21)

###

experimental_details: Pharmacokinetic analysis in rats
Format: in vivo, Male SD rats
condition_label: male, SD, plasma; rat, IV, 1 mg/kg
property_measured: half-life (h)
Could you give me the number in h? Just the number is fine.

Request: So what does the record say about half-life for C[C@H]1COC(=O)c2cnn3ccc(nc23)N[C@H](C)c2cc(F)ccc2O1 ?
Response: 1.7

###

target_or_test_system: UniProt P04629
Sequence (P04629 33-796): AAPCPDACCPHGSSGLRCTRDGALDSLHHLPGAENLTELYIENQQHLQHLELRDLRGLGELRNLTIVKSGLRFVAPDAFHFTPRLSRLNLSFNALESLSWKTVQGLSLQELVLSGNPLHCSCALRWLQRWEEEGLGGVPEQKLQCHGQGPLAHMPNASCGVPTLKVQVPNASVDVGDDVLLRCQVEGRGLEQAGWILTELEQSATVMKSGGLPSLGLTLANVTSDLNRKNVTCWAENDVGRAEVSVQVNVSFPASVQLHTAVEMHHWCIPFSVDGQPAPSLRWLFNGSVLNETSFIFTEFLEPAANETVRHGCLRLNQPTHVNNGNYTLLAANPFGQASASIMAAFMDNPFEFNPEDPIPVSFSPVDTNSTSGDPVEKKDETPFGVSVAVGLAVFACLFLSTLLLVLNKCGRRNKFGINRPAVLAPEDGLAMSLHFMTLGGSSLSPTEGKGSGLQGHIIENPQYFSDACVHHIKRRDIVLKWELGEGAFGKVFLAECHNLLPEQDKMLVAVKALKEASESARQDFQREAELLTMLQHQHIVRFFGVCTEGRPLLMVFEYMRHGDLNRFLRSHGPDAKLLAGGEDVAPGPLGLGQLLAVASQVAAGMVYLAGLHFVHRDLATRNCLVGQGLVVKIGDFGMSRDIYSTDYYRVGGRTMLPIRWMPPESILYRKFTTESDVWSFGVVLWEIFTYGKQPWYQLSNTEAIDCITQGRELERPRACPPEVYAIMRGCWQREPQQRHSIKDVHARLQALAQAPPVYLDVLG
experimental_details: Mobility shift assay, TRKA kinase
Type: biochemical
condition_label: ATP 47.8 μM
property_measured: IC50 (nM)

- molecular_string: "C[C@H]1Nc2ccn3ncc(c3n2)C(=O)OCC(F)(F)Oc2ccc(F)cc21"
  IC50 / nM: 0.56

1: C[C@@H]1c2cc(F)ccc2OCCOC(=O)c2cnn3ccc(nc23)N1C
2: C[C@H]1COC(=O)c2cnn3ccc(nc23)N[C@H](C)c2cc(F)ccc2S1
Request: Higher IC50: 1 or 2 ? Refer to your chosen entry by its label in the reply.
Response: 2
